# assay.system: Protein kinase C theta type (Homo sapiens); further: in the data inactive means no Kd found up to 30 µM
# Sequence (Q04759 whole entry): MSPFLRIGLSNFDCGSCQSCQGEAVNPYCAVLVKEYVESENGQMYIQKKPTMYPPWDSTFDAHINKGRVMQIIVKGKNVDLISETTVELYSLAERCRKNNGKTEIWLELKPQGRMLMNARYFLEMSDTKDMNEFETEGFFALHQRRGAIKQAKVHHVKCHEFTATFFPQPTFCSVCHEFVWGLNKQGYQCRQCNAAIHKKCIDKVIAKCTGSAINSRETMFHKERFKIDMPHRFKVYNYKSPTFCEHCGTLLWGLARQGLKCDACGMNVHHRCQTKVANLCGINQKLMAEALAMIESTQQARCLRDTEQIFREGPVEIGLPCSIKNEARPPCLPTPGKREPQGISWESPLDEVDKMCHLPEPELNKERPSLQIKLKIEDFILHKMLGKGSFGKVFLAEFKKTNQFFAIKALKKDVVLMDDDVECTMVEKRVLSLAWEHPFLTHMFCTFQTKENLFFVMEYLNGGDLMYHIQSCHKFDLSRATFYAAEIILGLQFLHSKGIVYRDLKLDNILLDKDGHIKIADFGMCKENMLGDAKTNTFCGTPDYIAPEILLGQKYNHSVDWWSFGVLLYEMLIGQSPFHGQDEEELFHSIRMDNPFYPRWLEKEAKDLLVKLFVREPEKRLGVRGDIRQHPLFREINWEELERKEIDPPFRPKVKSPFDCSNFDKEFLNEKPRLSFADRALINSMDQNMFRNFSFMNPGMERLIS
Active and inactive are the calls of the source.
# output must be one of active, inactive

1. Cc1c(NC(=O)OC[C@@H]2COCCN2)cn2ncnc(Nc3ccc4c(cnn4Cc4cccc(F)c4)c3)c12 [AC-480]; inactive
2. Cn1c(=O)c(F)c(Nc2ccc(I)cc2F)c2c(=O)n(C[C@@H](O)CO)cnc21 [TAK-733]; inactive
3. O=c1[nH]c([C@@H]2CCCN2)nc2c1oc1ccc(Cl)cc12; inactive

Asked: Could you check what this test reported for CC(C)CC(=O)Nc1[nH]nc2c1CN(C(=O)C1CCN(C)CC1)C2(C)C [PHA-793887] ?
Given back: active

Asked: Okay, and COc1cccc2cc(-c3nc([C@H]4CC[C@H](C(=O)O)CC4)n4ncnc(N)c34)[nH]c12 [OSI-027] ?
Given back: inactive

Asked: Okay, and Cn1cc(-c2[nH]c3cc(NC(=O)[C@H](N)C4CCCCC4)cc4c3c2C=NNC4=O)cn1 ?
Given back: inactive

Asked: Okay, and O[C@H]1CC[C@H](Nc2ncc3nc(Nc4c(F)cc(F)cc4F)n([C@H]4CCOC4)c3n2)CC1 [TANZISERTIB] ?
Given back: inactive

Asked: Okay, and COc1cc2ncnc3c2cc1OCCCCCN(C)Cc1ccc(Br)cc1N3 [JNJ-26483327] ?
Given back: inactive
